Where a name gives a salt, the structure may show the parent alone.
Data export: IC50 values recorded with Syk tyrosine kinase (Homo sapiens, UniProt P43405).

In the examples that follow, each entry is paired with its recorded IC50.
CS(=O)(=O)N1CCN(c2ccc(-c3cc(C4CC4)cc(Nc4cc(C#N)ccn4)n3)cn2)CC1 [Example 58, hydrochloride]
5 to 50 nM
N#Cc1ccnc(Nc2cc(C3CC3)cc(-c3ccc4ccnc(N5CC[C@@H](O)C5)c4c3)n2)c1 [Example 165, hydrochloride]
5 to 50 nM
Cc1nc2ccc(-c3cc(C4CC4)cc(Nc4cc(C#N)ccn4)n3)cc2n1[C@H]1CC[C@H](O)CC1 [Example 159, hydrochloride]
< 5 nM

Data request: Please report the measured IC50 for N#Cc1ccnc(Nc2cc(C3CC3)cc(-c3cncc(N4CCC[C@@H](O)C4)c3)n2)c1 [Example 113, hydrochloride] tested on Syk tyrosine kinase (Homo sapiens, UniProt P43405).
Data returned: 5 to 50 nM

* * *

IC50 values by entry
molecular target: Syk tyrosine kinase (Homo sapiens, UniProt P43405)
Structures can show the parent of a compound that is named as a salt.

Data request: Please report the measured IC50 for N#Cc1ccnc(Nc2cc(C3CC3)cc(-c3ccc(C#N)nc3)n2)c1 [Example 17, hydrochloride] tested on Syk tyrosine kinase (Homo sapiens, UniProt P43405).
Data returned: 50 to 500 nM

Data request: Please report the measured IC50 for N#Cc1ccnc(Nc2cc(C3CC3)cc(-c3ccc(N4CCC(C(N)=O)(c5ccc(F)cc5)CC4)nc3)n2)c1 [Example 62, hydrochloride] tested on Syk tyrosine kinase (Homo sapiens, UniProt P43405).
Data returned: 5 to 50 nM

Data request: Please report the measured IC50 for N#Cc1ccnc(Nc2cc(C3CC3)cc(-c3ccc(N)nc3)n2)c1 [Example 18, hydrochloride] tested on Syk tyrosine kinase (Homo sapiens, UniProt P43405).
Data returned: 5 to 50 nM

Data request: Please report the measured IC50 for N#Cc1ccnc(Nc2cc(C3CC3)cc(-c3ccc4c(c3)ncn4CCO)n2)c1 [Example 147, hydrochloride] tested on Syk tyrosine kinase (Homo sapiens, UniProt P43405).
Data returned: 50 to 500 nM

* * *

Data export: IC50 values recorded with Syk tyrosine kinase (Homo sapiens).
Where a name gives a salt, the structure may show the parent alone.

N#Cc1ccnc(Nc2cc(C3CC3)cc(-c3ccc4cn[nH]c4c3)n2)c1 [Example 55, hydrochloride]
5 to 50 nM
N#Cc1ccnc(Nc2cc(C3CC3)cc(-c3ccnc(CN4CCNCC4)c3)n2)c1 [Example 86, hydrochloride]
5 to 50 nM
CN(Cc1cncc(-c2cc(C3CC3)cc(Nc3cc(C#N)ccn3)n2)c1)C1CCNCC1 [Example 92, hydrochloride]
< 5 nM
N#CCCn1cnc2cc(-c3cc(C4CC4)cc(Nc4cc(C#N)ccn4)n3)ccc21 [Example 134, hydrochloride]
5 to 50 nM
N#Cc1ccnc(Nc2cc(C3CC3)cc(-c3ccc(NCCN)nc3)n2)c1 [Example 19, dihydrochloride]
< 5 nM

Query compound follows.
Data request: Please report the measured IC50 for N#Cc1ccnc(Nc2cc(C3CC3)cc(-c3ccc4ncn(Cc5ccncc5)c4c3)n2)c1 [Example 133, hydrochloride] tested on Syk tyrosine kinase (Homo sapiens).
Data returned: 5 to 50 nM

* * *

Data export: IC50 values recorded with Syk tyrosine kinase (Homo sapiens, UniProt P43405).
Structures can show the parent of a compound that is named as a salt.

N#Cc1ccnc(Nc2cc(C3CC3)cc(-c3ccc(N4CCN(C(N)=S)CC4)nc3)n2)c1 [Example 46, hydrochloride]
50 to 500 nM
N#Cc1ccnc(Nc2cc(C3CC3)cc(-c3ccc(N4CCC[C@H]4CO)nc3)n2)c1 [Example 48, hydrochloride]
50 to 500 nM
N#Cc1ccnc(Nc2cc(C3CC3)cc(-c3ccc4ccnc(N5CC[C@@H](N)C5)c4c3)n2)c1 [Example 169, hydrochloride]
5 to 50 nM
N#Cc1ccnc(Nc2cc(C3CC3)cc(-c3ccc(CN4CCS(=O)(=O)CC4)nc3)n2)c1 [Example 72, hydrochloride]
5 to 50 nM
N#Cc1ccnc(Nc2cc(C3CC3)cc(-c3cncc(OC4CNC4)c3)n2)c1 [Example 102, hydrochloride]
5 to 50 nM

Data request: Please report the measured IC50 for CC(=O)N1CCN(c2ccc(-c3cc(C4CC4)cc(Nc4cc(C#N)ccn4)n3)cn2)CC1 [Example 59, hydrochloride] tested on Syk tyrosine kinase (Homo sapiens, UniProt P43405).
Data returned: 5 to 50 nM

Data request: Please report the measured IC50 for CC(C)(CO)CNc1ccc(-c2cc(C3CC3)cc(Nc3cc(C#N)ccn3)n2)cn1 [Example 24, hydrochloride] tested on Syk tyrosine kinase (Homo sapiens, UniProt P43405).
Data returned: 5 to 50 nM

Data request: Please report the measured IC50 for CN(C)C(C)(C)COc1cncc(-c2cc(C3CC3)cc(Nc3cc(C#N)ccn3)n2)c1 [Example 108, hydrochloride] tested on Syk tyrosine kinase (Homo sapiens, UniProt P43405).
Data returned: 50 to 500 nM

Data request: Please report the measured IC50 for N#Cc1ccnc(Nc2cc(C3CC3)cc(-c3ccc4c(c3)ncn4Cc3ccccc3)n2)c1 [Example 137, hydrochloride] tested on Syk tyrosine kinase (Homo sapiens, UniProt P43405).
Data returned: 50 to 500 nM

Data request: Please report the measured IC50 for N#Cc1ccnc(Nc2cc(C3CC3)cc(-c3ccc(N4C[C@@H](O)CC4=O)nc3)n2)c1 [Example 11, hydrochloride] tested on Syk tyrosine kinase (Homo sapiens, UniProt P43405).
Data returned: 50 to 500 nM

Data request: Please report the measured IC50 for N#Cc1ccnc(Nc2cc(C3CC3)cc(-c3cncc(NC4CCN(C(N)=O)CC4)c3)n2)c1 [Example 77, hydrochloride] tested on Syk tyrosine kinase (Homo sapiens, UniProt P43405).
Data returned: 5 to 50 nM

Data request: Please report the measured IC50 for N#Cc1ccnc(Nc2cc(C3CC3)cc(-c3ccc(N4CCC(NC(N)=O)CC4)nc3)n2)c1 [Example 64, hydrochloride] tested on Syk tyrosine kinase (Homo sapiens, UniProt P43405).
Data returned: 5 to 50 nM

Data request: Please report the measured IC50 for N#Cc1ccnc(Nc2cc(C3CC3)cc(-c3ccc(CN4CCCN(C(N)=O)CC4)nc3)n2)c1 [Example 154, hydrochloride] tested on Syk tyrosine kinase (Homo sapiens, UniProt P43405).
Data returned: 50 to 500 nM

Data request: Please report the measured IC50 for CCn1cnc2ccc(-c3cc(C4CC4)cc(Nc4cc(C#N)ccn4)n3)cc21 [Example 142, hydrochloride] tested on Syk tyrosine kinase (Homo sapiens, UniProt P43405).
Data returned: 50 to 500 nM

* * *

IC50 values by entry
target: Syk tyrosine kinase (Homo sapiens); construct: purchased Carna Biosciences, Inc; assay: Test for Syk tyrosine kinase inhibitory activity (ELISA); format: biochemical; conditions: Syk tyrosine kinase (Carna Biosciences), 25 μM ATP in substrate solution, 30° C. 1 hour, n=2; read-out: Evaluation (IC50, concentration inhibiting the tyrosine kinase activity at 50%)
Counter-ions that a name gives are not always drawn.

Data request: Quick one: give measured IC50 for N#Cc1ccnc(Nc2cc(C3CC3)cc(-c3cccc(N4CCCN(C(N)=O)CC4)c3)n2)c1 [Example 78, hydrochloride]
Data returned: 5 to 50 nM

Data request: Quick one: give measured IC50 for CC(=O)N[C@@H]1CCN(c2ccc(-c3cc(C4CC4)cc(Nc4cc(C#N)ccn4)n3)cn2)C1 [Example 50, hydrochloride]
Data returned: 50 to 500 nM

Data request: Quick one: give measured IC50 for N#Cc1ccnc(Nc2cc(C3CC3)cc(-c3ccc4ncn(C5CCCC5O)c4c3)n2)c1 (stereo not shown) [Example 140, hydrochloride]
Data returned: 5 to 50 nM

* * *

Structures can show the parent of a compound that is named as a salt.
Data export: IC50 values recorded with Syk tyrosine kinase (Homo sapiens).

In the examples that follow, each entry is paired with its recorded IC50.
N#Cc1ccnc(Nc2cc(C3CC3)cc(-c3ccc(N4CCSCC4)nc3)n2)c1 [Example 27, hydrochloride]
0.005 to 0.05 µM
N#Cc1ccnc(Nc2cc(C3CC3)cc(-c3ccc(N4CC[C@@H](O)C4)nc3)n2)c1 [Example 22, hydrochloride]
0.005 to 0.05 µM
N#Cc1ccnc(Nc2cc(C3CC3)cc(-c3ccnc(CN4CCNC(=O)C4)c3)n2)c1 [Example 87, hydrochloride]
0.005 to 0.05 µM

Data request: Please report the measured IC50 for CC(=O)N1CCN(Cc2cncc(-c3cc(C4CC4)cc(Nc4cc(C#N)ccn4)n3)c2)CC1 [Example 82, hydrochloride] tested on Syk tyrosine kinase (Homo sapiens).
Data returned: 0.05 to 0.5 µM

Data request: Please report the measured IC50 for N#Cc1ccnc(Nc2cc(C3CC3)cc(-c3ccc(N4CCC(C(N)=O)CC4)nc3)n2)c1 [Example 61, hydrochloride] tested on Syk tyrosine kinase (Homo sapiens).
Data returned: 0.05 to 0.5 µM

Data request: Please report the measured IC50 for CO[C@H]1CC[C@H](n2cnc3ccc(-c4cc(C5CC5)cc(Nc5cc(C#N)ccn5)n4)cc32)CC1 [Example 138, hydrochloride] tested on Syk tyrosine kinase (Homo sapiens).
Data returned: 0.05 to 0.5 µM

Data request: Please report the measured IC50 for N#Cc1ccnc(Nc2cc(C3CC3)cc(-c3cnc(N4CCS(=O)(=O)CC4)c(F)c3)n2)c1 [Example 177, hydrochloride] tested on Syk tyrosine kinase (Homo sapiens).
Data returned: 0.005 to 0.05 µM

Data request: Please report the measured IC50 for N#Cc1ccnc(Nc2cc(C3CC3)cc(-c3ccc(N4CCNCC4=O)nc3)n2)c1 [Example 66, hydrochloride] tested on Syk tyrosine kinase (Homo sapiens).
Data returned: 0.05 to 0.5 µM

Data request: Please report the measured IC50 for N#Cc1ccnc(Nc2cc(C3CC3)cc(-c3ccc4ccnc(N5CC(O)C5)c4c3)n2)c1 [Example 166, hydrochloride] tested on Syk tyrosine kinase (Homo sapiens).
Data returned: 0.005 to 0.05 µM

Data request: Please report the measured IC50 for N#Cc1ccnc(Nc2cc(C3CC3)cc(-c3ccc4[nH]c(=O)n([C@H]5CC[C@H](O)CC5)c4c3)n2)c1 [Example 156, hydrochloride] tested on Syk tyrosine kinase (Homo sapiens).
Data returned: < 0.005 µM

Data request: Please report the measured IC50 for N#Cc1ccnc(Nc2cc(C3CC3)cc(-c3ccc4ccnc(N5CCNCC5)c4c3)n2)c1 [Example 163, hydrochloride] tested on Syk tyrosine kinase (Homo sapiens).
Data returned: 0.005 to 0.05 µM

Data request: Please report the measured IC50 for N#Cc1ccnc(Nc2cc(C3CC3)cc(-c3cncc(NC4CNC4)c3)n2)c1 [Example 95, hydrochloride] tested on Syk tyrosine kinase (Homo sapiens).
Data returned: < 0.005 µM

Data request: Please report the measured IC50 for N#Cc1ccnc(Nc2cc(C3CC3)cc(-c3ccc(NCCCO)nc3)n2)c1 [Example 23, hydrochloride] tested on Syk tyrosine kinase (Homo sapiens).
Data returned: 0.005 to 0.05 µM

Data request: Please report the measured IC50 for Cn1cnc2ccc(-c3cc(C4CC4)cc(Nc4cc(C#N)ccn4)n3)cc21 [Example 153, hydrochloride] tested on Syk tyrosine kinase (Homo sapiens).
Data returned: 0.005 to 0.05 µM

Data request: Please report the measured IC50 for COCCNc1ccc(-c2cc(C3CC3)cc(Nc3cc(C#N)ccn3)n2)cn1 [Example 21, hydrochloride] tested on Syk tyrosine kinase (Homo sapiens).
Data returned: 0.005 to 0.05 µM

Data request: Please report the measured IC50 for CC(C)NC(=O)N1CCN(c2ccc(-c3cc(C4CC4)cc(Nc4cc(C#N)ccn4)n3)cn2)CC1 [Example 44, hydrochloride] tested on Syk tyrosine kinase (Homo sapiens).
Data returned: 0.05 to 0.5 µM

Data request: Please report the measured IC50 for CN1CCCN(c2ccc(-c3cc(C4CC4)cc(Nc4cc(C#N)ccn4)n3)cn2)CC1 [Example 38, dihydrochloride] tested on Syk tyrosine kinase (Homo sapiens).
Data returned: 0.005 to 0.05 µM

Data request: Please report the measured IC50 for N#Cc1ccnc(Nc2cc(C3CC3)cc(-c3ccc(N4CCN(C(N)=O)CC4=O)nc3)n2)c1 [Example 67, hydrochloride] tested on Syk tyrosine kinase (Homo sapiens).
Data returned: 0.05 to 0.5 µM

Data request: Please report the measured IC50 for CC(C)c1nc2ccc(-c3cc(C4CC4)cc(Nc4cc(C#N)ccn4)n3)cc2n1[C@H]1CC[C@H](O)CC1 [Example 161, hydrochloride] tested on Syk tyrosine kinase (Homo sapiens).
Data returned: < 0.005 µM

Data request: Please report the measured IC50 for N#Cc1ccnc(Nc2cc(C3CC3)cc(-c3ccc4ncn(C(CO)CO)c4c3)n2)c1 [Example 143, hydrochloride] tested on Syk tyrosine kinase (Homo sapiens).
Data returned: 0.005 to 0.05 µM

Data request: Please report the measured IC50 for N#Cc1ccnc(Nc2cc(C3CC3)cc(-c3ccc4c(c3)ncn4CC3(O)CCCCC3)n2)c1 [Example 120, hydrochloride] tested on Syk tyrosine kinase (Homo sapiens).
Data returned: 0.05 to 0.5 µM

Data request: Please report the measured IC50 for N#Cc1ccnc(Nc2cc(C3CC3)cc(-c3cncc(CNC4CCNCC4)c3)n2)c1 [Example 93, hydrochloride] tested on Syk tyrosine kinase (Homo sapiens).
Data returned: 0.005 to 0.05 µM
